# Assay Target: T1, MBNL1(3-4,3-4) (Homo sapiens)
# T1 chain: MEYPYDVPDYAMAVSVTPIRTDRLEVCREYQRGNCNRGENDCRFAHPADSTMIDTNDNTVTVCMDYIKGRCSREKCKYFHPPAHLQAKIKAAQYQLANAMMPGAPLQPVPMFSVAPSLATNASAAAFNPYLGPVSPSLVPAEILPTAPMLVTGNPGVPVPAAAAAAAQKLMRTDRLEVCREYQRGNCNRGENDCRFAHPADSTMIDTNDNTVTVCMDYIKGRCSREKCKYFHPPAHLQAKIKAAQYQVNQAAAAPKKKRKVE
# Test Details: EMSA; 115 mM NaCl, 20 mM Tris pH 7.5, 5 mM MgCl2, heparin, room temperature; apparent Kd
# Condition Context: label: 5'-32P; short hairpin (predicted)
Assay Metric: Kd

Query string: Retrieve Kd measured for GCUGCUGUUCGCUGCUG (ssRNA) [CUG4] and print it.
Result string: 257 nM
